target: GST-SBP-SLBP (stem-loop binding protein) (Homo sapiens, UniProt Q14493 1-270)
procedure text: targeted RNA Bind-n-Seq; RBNS binding buffer: 25 mM Tris pH 7.5, 150 mM KCl, 3 mM MgCl2, 0.1% Tween, 0.5 mg/mL BSA, 1 mM DTT; 27 nM protein, 750 pM RNA pool; temperature not stated; high values mean tight binding
condition summary: protein: recombinant; tags: N-terminal GST and SBP (pGEX6P1-SBP); structured_RNA
Over roughly 11,000 sequences, “log2 fold change” has its median near 0.00022; the highest 2% begin near 0.34. This is one part of the list.
measured quantity: binding signal (log2 fold change)
Entry rule: numbers only, all in log2 fold change.

>>> value("GGUCACGUCUCAAUCAACUCUAUCUCCAGGGAAAGCCCUGGCUUACUCAACAGCUCGCAGUCAAG")
0.329
>>> value("GGUCACGUCUCAAUCAACUCACAAGAGGGGGGGAAAACCCCUUUACCCUCACUCUCAACAGCUCGCAGUCAAG")
0.304
>>> value("GGUCACGUCUCAAUCAACUCUAUCUCCAGGGAAAGCCCUGGUUAUCUCAACAGCUCGCAGUCAAG")
0.334

Query: binding signal; subject: "GGUCACGUCUCAAUCAACUCAUCCUCCAGGGAAACCCCUGGCUAUCUCAACAGCUCGCAGUCAAG"
0.3
